Where these numbers come from: patent US20160362487A1

System under test: T1, cynomolgus monkey IL-33 expressed with a C-terminal hexahistidine tag (cynomolgus monkey)
T1 construct: also called MfIL-33-6His; Mf-IL-33-6His
T1 chain: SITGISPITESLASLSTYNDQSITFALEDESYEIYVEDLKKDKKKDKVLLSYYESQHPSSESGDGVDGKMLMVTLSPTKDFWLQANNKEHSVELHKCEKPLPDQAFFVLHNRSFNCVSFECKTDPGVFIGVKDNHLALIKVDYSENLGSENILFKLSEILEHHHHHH
Assay details: SPR 25C pH7.4, mAb captured
Listed next: entries and their corresponding t½.
Just the number in min, nothing appended.

These recorded examples may help you get a feel for the data.
| Binder | t½ [min] |
| --- | --- |
| H4H9666P (antibody, human IgG4, V domains shown, Human IgG4 Fc (H4H)) VH: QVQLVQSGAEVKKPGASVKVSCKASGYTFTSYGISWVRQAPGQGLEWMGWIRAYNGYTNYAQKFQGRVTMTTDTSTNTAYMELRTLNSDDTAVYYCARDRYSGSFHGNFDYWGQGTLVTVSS VL: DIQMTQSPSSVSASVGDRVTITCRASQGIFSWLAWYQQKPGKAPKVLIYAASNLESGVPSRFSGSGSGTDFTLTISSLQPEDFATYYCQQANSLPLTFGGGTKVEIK | 3.3 |
| H4H9671P (antibody, human IgG4, V domains shown, Human IgG4 Fc (H4H)) VH: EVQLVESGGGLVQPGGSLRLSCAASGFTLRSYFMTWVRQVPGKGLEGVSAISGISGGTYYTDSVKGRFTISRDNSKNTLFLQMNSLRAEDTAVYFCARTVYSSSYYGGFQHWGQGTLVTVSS VL: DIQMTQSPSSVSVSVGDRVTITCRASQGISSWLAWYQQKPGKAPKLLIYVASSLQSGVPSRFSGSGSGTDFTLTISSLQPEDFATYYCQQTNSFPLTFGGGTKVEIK | 8 |

Next item in the queue.
Look up and state reported t½ for H4H9663P (antibody, human IgG4, V domains shown, Human IgG4 Fc (H4H)) VH: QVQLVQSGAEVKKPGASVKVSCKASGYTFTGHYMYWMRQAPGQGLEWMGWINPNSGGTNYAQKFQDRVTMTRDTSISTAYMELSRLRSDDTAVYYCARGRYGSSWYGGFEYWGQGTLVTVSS VL: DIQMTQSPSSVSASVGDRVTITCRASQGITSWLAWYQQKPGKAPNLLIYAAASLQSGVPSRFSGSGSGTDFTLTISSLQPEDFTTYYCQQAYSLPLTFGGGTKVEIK
12
